Target: AR (Homo sapiens, UniProt P10275, T878A)
Construct: endogenous in cells; host or cells: LNCaP
Sequence (P10275 whole entry T878A): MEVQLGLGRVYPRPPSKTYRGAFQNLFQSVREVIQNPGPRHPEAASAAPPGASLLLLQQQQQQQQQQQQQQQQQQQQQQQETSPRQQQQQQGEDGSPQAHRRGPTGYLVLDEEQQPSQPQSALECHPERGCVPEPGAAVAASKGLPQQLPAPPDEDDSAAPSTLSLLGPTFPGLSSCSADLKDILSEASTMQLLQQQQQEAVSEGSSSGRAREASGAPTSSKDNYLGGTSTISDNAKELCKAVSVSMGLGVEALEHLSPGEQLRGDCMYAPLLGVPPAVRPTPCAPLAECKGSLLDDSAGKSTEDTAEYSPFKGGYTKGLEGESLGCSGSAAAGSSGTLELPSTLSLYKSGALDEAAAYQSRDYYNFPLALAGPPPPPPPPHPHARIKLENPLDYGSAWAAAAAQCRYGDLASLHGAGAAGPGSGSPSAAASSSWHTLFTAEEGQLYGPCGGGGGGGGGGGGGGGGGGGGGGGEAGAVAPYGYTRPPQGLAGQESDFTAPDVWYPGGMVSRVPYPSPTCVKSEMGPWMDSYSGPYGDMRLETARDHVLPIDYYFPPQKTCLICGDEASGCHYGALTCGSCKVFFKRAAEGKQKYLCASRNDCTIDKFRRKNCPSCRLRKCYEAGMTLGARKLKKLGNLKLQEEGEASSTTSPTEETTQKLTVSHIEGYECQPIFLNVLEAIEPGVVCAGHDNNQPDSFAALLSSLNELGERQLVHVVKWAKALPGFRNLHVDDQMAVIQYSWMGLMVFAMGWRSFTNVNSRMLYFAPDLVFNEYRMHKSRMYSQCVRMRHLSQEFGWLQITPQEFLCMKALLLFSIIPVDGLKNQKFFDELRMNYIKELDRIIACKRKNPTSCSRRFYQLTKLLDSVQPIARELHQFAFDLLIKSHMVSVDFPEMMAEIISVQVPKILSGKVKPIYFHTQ
Experiment: In vitro AR degradation activity test in LNCaP cells (ELISA, OD450)
Type: cell-based
Conditions: LNCaP cells, 24 hours
recorded_metric: DC50 (µM)
// note: answer is a bare numeric in µM

QUERY: Requested read-out: DC50. Entry: C[C@]12CC[C@H](NC(=O)c3ccnnc3)CC1=CCC1C2CC[C@]2(C)C(n3cnc([N+](=O)[O-])c3)=CCC12 (stereo partly drawn) [Compound 21]
RESULT: 3.31

QUERY: Another compound to check: C[C@]12CC[C@H](NC(=O)c3ccncc3)CC1=CCC1C2CC[C@]2(C)C(n3ccnc3)=CCC12 (stereo partly drawn) [Compound 17]
RESULT: 1.98

QUERY: Another compound to check: Cc1cn(C2=CCC3C4CC=C5C[C@@H](NC(=O)c6ccc(C#N)cc6)CC[C@]5(C)C4CC[C@]23C)cn1 (stereo partly drawn) [Compound 36]
RESULT: 1.37

QUERY: Another compound to check: C[C@]12CC[C@H](NC(=O)c3ccncc3)CC1=CCC1C2CC[C@]2(C)C(n3cnc4ccccc43)=CCC12 (stereo partly drawn) [Compound 8]
RESULT: 3.76

QUERY: Another compound to check: C[C@]12CC[C@H](NC(=O)c3cccnc3)CC1=CCC1C2CC[C@]2(C)C(c3cccnc3)=CCC12 (stereo partly drawn) [Compound 3]
RESULT: 2.87

QUERY: Another compound to check: Cc1cn(C2=CCC3C4CC=C5C[C@@H](NC(=O)c6ccc(F)cc6)CC[C@]5(C)C4CC[C@]23C)cn1 (stereo partly drawn) [Compound 33]
RESULT: 1.28

QUERY: Another compound to check: C[C@]12CC[C@H](NC(=O)c3ccnnc3)CC1=CCC1C2CC[C@]2(C)C(c3cncnc3)=CCC12 (stereo partly drawn) [Compound 10]
RESULT: 4.25

QUERY: Another compound to check: Cc1cn(C2=CCC3C4CC=C5C[C@@H](NC(=O)c6ccnnc6)CC[C@]5(C)C4CC[C@]23C)cn1 (stereo partly drawn) [Compound 13]
RESULT: 2.08

QUERY: Another compound to check: CCc1cn(C2=CCC3C4CC=C5C[C@@H](NC(=O)c6ccncc6)CC[C@]5(C)C4CC[C@]23C)cn1 (stereo partly drawn) [Compound 18]
RESULT: 3.21

QUERY: Another compound to check: COc1cn(C2=CCC3C4CC=C5C[C@@H](NC(=O)c6ccnnc6)CC[C@]5(C)C4CC[C@]23C)cn1 (stereo partly drawn) [Compound 24]
RESULT: 3.88

QUERY: Another compound to check: Cc1cn(C2=CCC3C4CC=C5C[C@@H](NC(=O)c6ccc([N+](=O)[O-])cc6)CC[C@]5(C)C4CC[C@]23C)cn1 (stereo partly drawn) [Compound 34]
RESULT: 2.6

QUERY: Another compound to check: Cc1cn(C2=CCC3C4CC=C5C[C@@H](NC(=O)c6ccc(F)cc6F)CC[C@]5(C)C4CC[C@]23C)cn1 (stereo partly drawn) [Compound 37]
RESULT: 1.68

QUERY: Another compound to check: Cc1cn(C2=CCC3C4CC=C5C[C@@H](NC(=O)c6cccnc6)CC[C@]5(C)C4CC[C@]23C)cn1 (stereo partly drawn) [Compound 12]
RESULT: 3.58

QUERY: Another compound to check: C[C@]12CC[C@H](NC(=O)c3ccnnc3)CC1=CCC1C2CC[C@]2(C)C(n3ccnc3)=CCC12 (stereo partly drawn) [Compound 16]
RESULT: 2.76

QUERY: Another compound to check: Cc1cn(C2=CCC3C4CC=C5C[C@@H](NC(=O)c6ccc(S(C)(=O)=O)cc6)CC[C@]5(C)C4CC[C@]23C)cn1 (stereo partly drawn) [Compound 35]
RESULT: 1.56

###

Reported log10 AUC(0-inf) values follow for various compounds
Experiment: In vivo pharmacokinetics in rats after oral gavage
Details: rat, plasma; male SD rats, PO 10 mg/kg
Hey, these are logged values: log10 of AUC(0-inf), ng·h/mL being the unit before logging.

| compound | recorded_number |
| --- | --- |
| Cc1cn(C2=CCC3C4CC=C5C[C@@H](NC(=O)c6ccncc6)CC[C@]5(C)C4CC[C@]23C)cn1 (stereo partly drawn) | 4.39 |
| Cc1cn(C2=CCC3C4CC=C5C[C@@H](NC(=O)c6ccc(F)cc6F)CC[C@]5(C)C4CC[C@]23C)cn1 (stereo partly drawn) | 4.39 |

QUERY: Requested read-out: log10 AUC(0-inf). Entry: C[C@]12CC[C@H](O)CC1=CC[C@@H]1[C@@H]2CC[C@]2(C)C(c3cccnc3)=CC[C@@H]12 [Abiraterone, abiraterone, reference compound]
RESULT: 2.30

QUERY: Another compound to check: C[C@]12CC[C@H](NC(=O)c3ccnnc3)CC1=CCC1C2CC[C@]2(C)C(n3ccnc3)=CCC12 (stereo partly drawn)
RESULT: 4.57

QUERY: Another compound to check: C[C@]12CC[C@H](NC(=O)c3ccncc3)CC1=CCC1C2CC[C@]2(C)C(n3ccnc3)=CCC12 (stereo partly drawn)
RESULT: 4.82

QUERY: Another compound to check: Cc1cn(C2=CCC3C4CC=C5C[C@@H](NC(=O)c6ccc(F)cc6)CC[C@]5(C)C4CC[C@]23C)cn1 (stereo partly drawn)
RESULT: 4.84
